Origin of the recorded values: PubChem BioAssay

Listed here are compounds together with their documented z-score.
test: MELAS cybrid and Rieske KO viability enhancers – cell-based, MELAS cybrids, Rieske KO mouse fibroblasts, CellTiter-Glo, primary screen (AID 1508586); conditions: MELAS cybrid survival, low glucose, CellTiter-Glo 48 h; hits give high values;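 further: test concentration not given here; z relative to plate mean and SD of compound and empty wells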
Write the value as a bare number.

Fill in: z-score of CNCC(O)c1ccc(OC(=O)C(C)(C)C)c(OC(=O)C(C)(C)C)c1 (stereo not given) is ___ -1.22

Find the recorded z-score belonging to N#Cc1c(Oc2ccc(F)c(NC(=O)Cc3cccc(C(F)(F)F)c3)c2)ccc2nc(NC(=O)C3CC3)sc12 and report it. -0.453

z-score for OCC1OC(c2ccc(Cl)c(Cc3ccc(OC4CCOC4)cc3)c2)C(O)C(O)C1O (stereo not given) ? -0.39

What z-score value was documented for this compound, CNC(=O)C(Cc1c[nH]c2ccccc12)NC(=O)C(CC(=O)NO)CC(C)C (stereo not given) ? 0.112

Can you look up the measured z-score of Cc1ccc(C2OC(CO)C(O)C(O)C2O)cc1Cc1ccc(-c2ccc(F)cc2)s1 (stereo not given) for me? -0.448

Quick check: z-score of NC(=O)Cc1ccccc1Oc1nccc(-c2c(-c3ccc(F)cc3)ncn2C2CCNCC2)n1 ? -0.586

Any idea what z-score was measured for CC(C)(C)NCC(O)COc1ccccc1C1CCCC1 (stereo not given) ? -0.603

I'd like to know its z-score. The compound in question is CCn1ncc(NC(=O)Cn2nc(C)c(-c3ccc(-n4cccn4)cc3)c2C)n1 -1.09

Item CNC(=O)C(c1ccccc1)N1CCc2cc(OC)c(OC)cc2C1CCc1ccc(C(F)(F)F)cc1 (stereo not given) has what recorded z-score? -0.149

More entries:
# get_value(readout='z-score', item= CC(C)(C)c1cc(C=C(C#N)C(N)=S)cc(C(C)(C)C)c1O ) -0.383
